FYI, the data here is from patent US20240109881A1.

# Tested on: IRAK4 (Homo sapiens, UniProt Q9NWZ3)
# Construct: endogenous in cells
# Sequence (Q9NWZ3 whole entry): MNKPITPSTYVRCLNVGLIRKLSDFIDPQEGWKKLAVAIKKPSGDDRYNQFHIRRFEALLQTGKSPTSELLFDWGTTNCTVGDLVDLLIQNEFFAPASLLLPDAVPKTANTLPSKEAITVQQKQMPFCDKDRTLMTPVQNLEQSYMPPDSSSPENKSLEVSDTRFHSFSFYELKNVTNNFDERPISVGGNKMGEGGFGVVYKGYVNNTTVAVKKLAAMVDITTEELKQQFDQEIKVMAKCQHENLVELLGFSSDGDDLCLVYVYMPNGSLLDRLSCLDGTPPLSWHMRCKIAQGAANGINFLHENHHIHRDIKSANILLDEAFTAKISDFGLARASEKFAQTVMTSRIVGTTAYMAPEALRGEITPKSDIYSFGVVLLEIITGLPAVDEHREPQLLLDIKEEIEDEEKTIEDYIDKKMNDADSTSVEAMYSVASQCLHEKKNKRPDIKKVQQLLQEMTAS
# Assay name: ALE THP1 HTRF (Advanced Lipoxidation End Product THP1 Homogeneous Time Resolved Fluorescence)
# Experimental context: THP1 cells
pEC50: −log10 of the molar value.
Measured quantity: pEC50

Take a look at these entries with their results.
CC(Nc1cc(-n2ncc3cc(C#N)cnc32)ncc1C(=O)NC1CCC(CCN2CCN(c3ccc(C4CCC(=O)NC4=O)cc3)CC2)CC1)C(F)(F)F (stereo not shown) : 7.55
C[C@H](C#N)Nc1cc(-n2ncc3cc(C#N)cnc32)ncc1C(=O)N[C@H]1CC[C@H](CCN2C[C@H](C)N(c3ccc(C4CCC(=O)NC4=O)cc3)C[C@@H]2C)CC1 (stereo partly shown) : 7.19
CN(c1ccc2c(c1)C(=O)N(C1CCC(=O)NC1=O)C2=O)C1CCN(C[C@H]2CC[C@H](NC(=O)c3cnc(-n4ncc5cc(C#N)cnc54)cc3NC3CCCC3)CC2)CC1 (stereo partly shown) : 6.92
N#Cc1cnc2c(cnn2-c2cc(NCC(F)(F)F)c(C(=O)N[C@H]3CC[C@H](CCN4CCN(c5ccc(C6CCC(=O)NC6=O)cc5)CC4)CC3)cn2)c1 (stereo partly shown) : 7.64
C[C@H]1CN(c2ccc3c(c2)C(=O)N(C2CCC(=O)NC2=O)C3=O)C[C@H](C)N1CC1CCC(NC(=O)c2cnc(-n3ncc4cc(C#N)cnc43)cc2NC2CCCC2)CC1 (stereo partly shown) : 6.88
N#Cc1cnc2c(cnn2-c2cc(Nc3cnn(CC(F)(F)F)c3)c(C(=O)NC3CCC(CCN4CCN(c5ccc(C6CCC(=O)NC6=O)cc5)CC4)CC3)cn2)c1 (stereo not shown) : 8.52
C[C@H]1CN(c2ccc(C3CCC(=O)NC3=O)cc2)C[C@H](C)N1CC[C@H]1CC[C@H](NC(=O)c2cnc(-n3ncc4cc(C#N)cnc43)cc2NC2CC2)CC1 (stereo partly shown) : 8.15
C[C@H](C#N)Nc1cc(-n2cc(F)c3cc(C#N)cnc32)ncc1C(=O)N[C@H]1CC[C@H](CCN2CCN(c3ccc(C4CCC(=O)NC4=O)cc3)CC2)CC1 (stereo partly shown) : 7.46

(a) N#Cc1cnc2c(cnn2-c2cc(NC3CC3)c(C(=O)NC3CCC(CCN4CCC(c5ccc(C6CCC(=O)NC6=O)cc5)CC4)CC3)cn2)c1 (stereo not shown)
(b) N#Cc1cnc2c(cnn2-c2cc(NC3CC3)c(C(=O)N[C@H]3CC[C@H](C4C[C@@H]4N4CCN(c5ccc(C6CCC(=O)NC6=O)cc5)CC4)CC3)cn2)c1 (single isomer, unassigned)
## Input Which item exceeds the other in pEC50, a or b ? Return value: the label identifying the chosen record.
## Output a

(I) CN(C1CCN(c2ccc3c(c2)C(=O)N(C2CCC(=O)NC2=O)C3)CC1)[C@H]1CC[C@H](n2cc(-c3cnc(-n4ncc5cc(C#N)cnc54)cc3NC3CCCC3)nn2)CC1 (stereo partly shown)
(II) N#Cc1cnc2c(ccn2-c2cc(NC3CC3)c(C(=O)NC3CCC(CCN4CCN(c5ccc(C6CCC(=O)NC6=O)cc5)CC4)CC3)cn2)c1 (stereo not shown)
(III) N#Cc1cc2cnn(-c3cc(NC4CC4)c(C(=O)N[C@H]4CC[C@H](CCN5CCN(c6ccc(C7CCC(=O)NC7=O)cc6)CC5)CC4)cn3)c2nc1N (stereo partly shown)
(IV) O=C1CCC(N2C(=O)c3ccc(N4CCN(C(=O)C5CCC(NC(=O)c6cnc(Nc7ccc8ncsc8c7)cc6NC6CCCC6)CC5)CC4)cc3C2=O)C(=O)N1 (stereo not shown)
## Input Rank ascending by pEC50. Answer format: list of labels, ordered as asked.
## Output IV, I, II, III
(IV: 7.01, I: 7.40, II: 7.68, III: 8.52)

(I) N#Cc1cnc2c(cnn2-c2cc(NC3CCCC3)c(C(=O)NC3CCC(CN4CCC(C(=O)Nc5ccc(C6CCC(=O)NC6=O)cc5)CC4)CC3)cn2)c1 (stereo not shown)
(II) O=C1CCC(c2ccc(N3CCN(CC[C@H]4CC[C@H](NC(=O)c5cnc(-n6ncc7cncnc76)cc5NC5CC5)CC4)CC3)cc2)C(=O)N1 (stereo partly shown)
(III) N#Cc1cnc2c(cnn2-c2cc(NC3CC3)c(C(=O)NC3CCC(CCN4CCN(c5ccc([C@@H]6CCC(=O)NC6=O)cc5)CC4)CC3)cn2)c1 (stereo partly shown)
## Input Highest pEC50 first, then in falling order down to the smallest. Answer format: list of labels, ordered as asked.
## Output III, II, I
